Recorded values, source paper PMC6889141.

system: T1, N-Terminal methyltransferase 1 (NTMT1), wild type (UniProt Q9BV86 1-223)
T1 construct: N-terminal methyltransferase 1 (NTMT1), wild type; they probably stand in the ESI; also called wt NTMT1
T1 sequence (looked up): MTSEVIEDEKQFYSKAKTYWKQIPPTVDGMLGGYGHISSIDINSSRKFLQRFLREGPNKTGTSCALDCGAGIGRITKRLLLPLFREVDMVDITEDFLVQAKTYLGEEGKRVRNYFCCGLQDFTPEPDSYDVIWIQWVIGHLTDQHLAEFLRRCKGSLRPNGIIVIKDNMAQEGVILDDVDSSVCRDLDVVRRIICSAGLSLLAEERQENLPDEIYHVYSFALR
protocolDetails: ITC; affinity of RCC1 peptide with wt NTMT1; conditions, and which of the two was titrated, not told in the text shown
conditionSummary: both partners purified
metric: Kd (nM)

>  <binder>
SPKRIAKRRS (peptide, UniProt P18754 2-11, looked up, RCC1, the first 10 N-terminal residues after removal of the initial methionine (residues 2-11 counted with the methionine as 1); also called RCC1 peptide; source: synthetic peptide) [RCC1p, peptide of the first 10 N-terminal residues of RCC1 after initial methionine removal]

>  <val>
1220

$$$$
